Assignment: determine reported inhibition at 10 µM for the given compounds.
biological target: UniProt P47901; test: V1b binding assay (3H-AVP displacement, HEK-293 membranes); set-up: expressed in transfected cells; host or cells: HEK-293 (membranes); settings: 10 μM compound; read-out: V1b % Inh @10
Sequence (P47901 whole entry): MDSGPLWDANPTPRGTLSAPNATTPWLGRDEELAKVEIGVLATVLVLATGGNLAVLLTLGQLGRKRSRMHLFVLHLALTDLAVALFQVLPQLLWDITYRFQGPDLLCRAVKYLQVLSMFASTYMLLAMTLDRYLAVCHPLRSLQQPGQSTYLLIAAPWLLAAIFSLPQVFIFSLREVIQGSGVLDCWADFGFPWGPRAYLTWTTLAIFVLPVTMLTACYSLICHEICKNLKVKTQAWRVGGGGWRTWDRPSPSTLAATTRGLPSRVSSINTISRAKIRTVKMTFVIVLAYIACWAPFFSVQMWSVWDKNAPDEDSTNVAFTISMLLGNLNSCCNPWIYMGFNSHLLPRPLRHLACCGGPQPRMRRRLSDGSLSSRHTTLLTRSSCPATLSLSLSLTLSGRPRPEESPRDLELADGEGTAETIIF
Counter-ions that a name gives are not always drawn.
Write it as a number; the unit % goes unstated.

Input: Quick check: inhibition at 10 µM of O=c1[nH]c2ccccc2n1C1CCN(C(=S)NCc2ccc(Cl)cc2Cl)CC1 [Compound 17] ?
Output: 7

Input: # query: inhibition at 10 µM of entry COC(=O)[C@@H](Cc1c[nH]c2ccccc12)NC(=S)N1CCC(n2c(=O)[nH]c3ccccc32)CC1 [Compound 50]
Output: 15

Input: Recorded inhibition at 10 µM for NCCn1c(=O)n(C2CCN(C(=S)NC(c3ccccc3)c3ccccc3)CC2)c2ccccc21 [Compound 63, Hydrochloride] , please?
Output: 74

Input: Recorded inhibition at 10 µM of O=c1[nH]c2ccccc2n1C1CCN(C(=S)NCCc2ccccc2)CC1 [Compound 22] , please.
Output: 0

Input: Endpoint output: inhibition at 10 µM of CCOC(=O)CCn1c(=O)n(C2CCN(C(=S)NC(c3ccccc3)c3ccccc3)CC2)c2ccccc21 [Compound 60] . Value?
Output: 19

Input: Give its inhibition at 10 µM value. Item: O=c1[nH]c2ccccc2n1C1CCN(C(=S)NCc2cccnc2)CC1 [Compound 29]
Output: 0

Input: For COc1ccccc1CNC(=S)N1CCC(n2c(=O)[nH]c3ccccc32)CC1 [Compound 14] , what is its reported inhibition at 10 µM?
Output: 0

Input: Returns the measured inhibition at 10 µM for the input compound. Input: CCN(CC)CCn1c(=O)n(C2CCN(C(=S)NC(C)c3ccc(F)cc3)CC2)c2ccccc21 (centres unmarked) [Compound 36]
Output: 20

Input: Would you mind telling me what inhibition at 10 µM value was observed for O=c1[nH]c2ccccc2n1C1CCN(C(=S)NCCc2ccc([N+](=O)[O-])cc2)CC1 [Compound 31] ?
Output: 5

Input: // lookup inhibition at 10 µM for O=c1[nH]c2ccccc2n1C1CCN(C(=S)NCc2ccccc2)CC1 [Compound 11]
Output: 0

Input: For the compound O=c1n(Cc2ccccc2)c2ccccc2n1C1CCN(C(=S)NCCc2ccc(Cl)cc2)CC1 [Compound 39] , what inhibition at 10 µM is on record?
Output: 7

Input: Would you mind telling me what inhibition at 10 µM value was observed for NC(=O)CCn1c(=O)n(C2CCN(C(=S)NC(c3ccccc3)c3ccccc3)CC2)c2ccccc21 [Compound 69] ?
Output: 27

Input: Sample CC(NC(=S)N1CCC(n2c(=O)[nH]c3ccccc32)CC1)c1ccc(F)cc1 (centres unmarked) [Compound 27] — what was its inhibition at 10 µM?
Output: 0

Input: Fill in the blank: the reported inhibition at 10 µM of O=c1[nH]c2ccccc2n1C1CCN(C(=S)NC(c2ccccc2)(c2ccccc2)c2ccccc2)CC1 [Compound 25] is ____.
Output: 0

* * *

target: human V2 receptor (Homo sapiens, UniProt P30518); experiment: V2 binding assay (3H-AVP displacement, HEK-293 membranes); parameters: expressed in transfected cells; host or cells: HEK-293 (membranes); settings: 1.0 μM compound; read-out: V2@1.0, % Inh
Sequence (P30518 whole entry): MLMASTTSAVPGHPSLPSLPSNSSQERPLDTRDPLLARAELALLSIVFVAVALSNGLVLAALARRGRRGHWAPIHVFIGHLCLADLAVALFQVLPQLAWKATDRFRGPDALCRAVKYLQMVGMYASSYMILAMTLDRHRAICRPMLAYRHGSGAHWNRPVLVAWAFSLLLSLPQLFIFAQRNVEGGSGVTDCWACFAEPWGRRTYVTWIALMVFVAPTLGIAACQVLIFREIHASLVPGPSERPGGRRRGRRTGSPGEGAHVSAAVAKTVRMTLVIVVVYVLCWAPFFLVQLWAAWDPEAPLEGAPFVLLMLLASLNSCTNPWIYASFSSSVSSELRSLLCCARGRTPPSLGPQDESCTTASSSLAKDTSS
Answer each item with its documented inhibition at 1 µM.
The figure you give is taken to be in %; do not add the unit.

Input: # lookup: inhibition at 1 µM of "Cc1ccccc1NC(=O)N1CCC(n2c(=O)n(CCCN3CCCCC3)c3ccccc32)CC1"
Output: 2

Input: Which value of inhibition at 1 µM has been reported for "O=c1n(CCCN2CCCCC2)c2ccccc2n1C1CCN(C(=S)NCc2cccnc2)CC1" in the records?
Output: 2

Input: Could you share which inhibition at 1 µM value was measured for "O=c1n(Cc2ccccc2)c2ccccc2n1C1CCN(C(=S)NCCc2ccc(Cl)cc2)CC1" ?
Output: 0

Input: Given the molecule CC(CN1CCCCC1)Cn1c(=O)n(C2CCN(C(=O)NC(c3ccccc3)c3ccccc3)CC2)c2ccccc21 (stereo not shown) , what is its reported inhibition at 1 µM?
Output: 1

Input: Given the entry "CCOC(=O)C1CCN(CCCn2c(=O)n(C3CCN(C(=S)NC(c4ccccc4)c4ccccc4)CC3)c3ccccc32)CC1" , report its measured inhibition at 1 µM.
Output: 2

Input: Need inhibition at 1 µM, item "O=c1n(CCCN2CCCCCC2)c2ccccc2n1C1CCN(C(=S)NC(c2ccccc2)c2ccccc2)CC1"
Output: 0

Input: Suppose we examine the molecule "O=c1n(CCCN2CCCCC2)c2ccccc2n1C1CCN(C(=S)NC(c2ccccc2)c2ccccc2)CC1" ; what inhibition at 1 µM value has been reported?
Output: 18

* * *

Can you tell me inhibition at 10 µM for the items I'm about to list?
biological target: NPY2 receptors (Homo sapiens, UniProt P49146); construct: Cell Membranes from KAN-TS cells having NPY2 receptors; endogenous in cells; host or cells: KAN-TS cells (membranes); assay: Neuropeptide Y receptor binding assay (125I-PYY, KAN-TS cell membranes); conditions: 10 μM compound; read-out: NPY-2@10, % Inh
Sequence (P49146 whole entry): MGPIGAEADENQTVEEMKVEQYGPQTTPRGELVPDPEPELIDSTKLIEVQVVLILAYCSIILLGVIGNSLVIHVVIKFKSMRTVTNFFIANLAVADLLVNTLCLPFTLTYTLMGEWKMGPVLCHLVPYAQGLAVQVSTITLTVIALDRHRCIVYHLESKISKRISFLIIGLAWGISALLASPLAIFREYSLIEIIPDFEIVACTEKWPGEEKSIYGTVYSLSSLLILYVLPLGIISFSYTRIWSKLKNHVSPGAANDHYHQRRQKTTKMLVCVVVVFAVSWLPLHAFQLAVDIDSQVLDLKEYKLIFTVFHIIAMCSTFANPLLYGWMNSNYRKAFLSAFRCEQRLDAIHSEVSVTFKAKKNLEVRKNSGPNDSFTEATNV
Counter-ions that a name gives are not always drawn.
Numeric answer only, unit % assumed.

Input: Need inhibition at 10 µM, item Cc1ccccc1NC(=O)N1CCC(n2c(=O)n(CCCN3CCCCC3)c3ccccc32)CC1 [Compound 110]
Output: 0

Input: Reported inhibition at 10 µM, compound CN1CCN(CCCn2c(=O)n(C3CCN(C(=O)NC(c4ccccc4)c4ccccc4)CC3)c3ccccc32)CC1 [Compound 100] : ____
Output: 6

Input: GET /values?readout=inhibition at 10 µM&item= CC(=O)NCCCn1c(=O)n(C2CCN(C(=S)NC(c3ccccc3)c3ccccc3)CC2)c2ccccc21 [Compound 76]
Output: 41

Input: Returns the measured inhibition at 10 µM for the input compound. Input: O=c1[nH]c2ccccc2n1C1CCN(C(=S)NCCN2CCOCC2)CC1 [Compound 26]
Output: 10

Input: Using the record for CCN(CC)CCn1c(=O)n(C2CCN(C(=O)NC(c3ccccc3)c3ccccc3)CC2)c2ccccc21 [Compound 91] , report its inhibition at 10 µM.
Output: 56

Input: Query (compound): COc1ccc(C(NC(=S)N2CCC(n3c(=O)n(CCCN)c4ccccc43)CC2)c2ccc(OC)cc2)cc1 [Compound 68, Hydrochloride] ; field requested: inhibition at 10 µM
Output: 11

Input: Given the entry NCCCn1c(=O)n(C2CCN(C(=S)NC(c3ccccc3)c3ccccc3)CC2)c2cc(Cl)c(Cl)cc21 [Compound 67] , report its measured inhibition at 10 µM.
Output: 2

Input: Tell me the measured inhibition at 10 µM of COc1ccccc1CNC(=S)N1CCC(n2c(=O)n(CCCN3CCCCC3)c3ccccc32)CC1 [Compound 111] , please.
Output: 31

Input: If you can, please state the reported inhibition at 10 µM value of O=C(NC(c1ccccc1)(c1ccccc1)c1ccccc1)N1CCC(n2c(=O)n(CCCN3CCCCC3)c3ccccc32)CC1 [Compound 120] .
Output: 100

Input: State the recorded inhibition at 10 µM for this entry: O=c1[nH]c2ccccc2n1C1CCN(C(=S)NCCc2cccc(Cl)c2)CC1 [Compound 23]
Output: 15

Input: Need inhibition at 10 µM, item COC(=O)[C@@H](Cc1ccccc1)NC(=S)N1CCC(n2c(=O)n(CCCNC(=N)N)c3ccccc32)CC1 [Compound 58]
Output: 2

Input: Quick one: inhibition at 10 µM for CN1CCN(CCCn2c(=O)n(C3CCN(C(=S)NC(c4ccccc4)c4ccccc4)CC3)c3ccccc32)CC1 [Compound 78] ?
Output: 74

Input: Item CCN(CC)CCn1c(=O)n(C2CCN(C(=S)NC(c3ccccc3)c3ccccc3)CC2)c2ccccc21 [Compound 35] has what recorded inhibition at 10 µM?
Output: 74

Input: GET /values?readout=inhibition at 10 µM&item= O=c1[nH]c2ccccc2n1C1CCN(C(=S)NCCCc2ccccc2)CC1 [Compound 38]
Output: 7

Input: Could you share which inhibition at 10 µM value was measured for COc1cc(NC(=S)N2CCC(n3c(=O)[nH]c4ccccc43)CC2)cc(OC)c1OC [Compound 6] ?
Output: 16

* * *

biological target: human V2 receptor (Homo sapiens, UniProt P30518); experiment: V2 binding assay (3H-AVP displacement, HEK-293 membranes); set-up: expressed in transfected cells; host or cells: HEK-293 (membranes); details: 1.0 μM compound; read-out: V2@1.0, % Inh
testReadout: inhibition at 1 µM (%)
Record the value in %, omitting the unit from your answer.

Input: Fill blank: measured inhibition at 1 µM of the molecule COc1ccc(NC(=S)N2CCC(n3c(=O)[nH]c4ccccc43)CC2)cc1 [Compound 5] is ____.
Output: 34

Input: Sample CCCNC(=S)N1CCC(n2c(=O)n(CCCN3CCCCC3)c3ccccc32)CC1 [Compound 128] — what was its inhibition at 1 µM?
Output: 0

Input: Returns the measured inhibition at 1 µM for the input molecule. Input: O=C(NCc1ccccc1)N1CCC(n2c(=O)n(CCCN3CCCCC3)c3ccccc32)CC1 [Compound 106]
Output: 2

Input: Give its inhibition at 1 µM value. Item: CN1CCN=C1NCCCn1c(=O)n(C2CCN(C(=S)NC(c3ccccc3)c3ccccc3)CC2)c2ccccc21 [Compound 144]
Output: 2

Input: What measured inhibition at 1 µM goes with O=C(Nc1ccccc1-c1ccccc1)N1CCC(n2c(=O)n(CCCN3CCCCC3)c3ccccc32)CC1 [Compound 162] ?
Output: 4

Input: Look up inhibition at 1 µM for this molecule: O=c1[nH]c2ccccc2n1C1CCN(C(=S)NCCN2CCOCC2)CC1 [Compound 26]
Output: 20

Input: Reported inhibition at 1 µM, molecule CN(C)c1ccc(CNC(=S)N2CCC(n3c(=O)[nH]c4ccccc43)CC2)cc1 [Compound 24] : ____
Output: 9

Input: Which inhibition at 1 µM is reported for this molecule? O=c1n(CCCN2CCCCC2)c2ccccc2n1C1CCN(C(=S)NCc2ccc3c(c2)OCO3)CC1 [Compound 163]
Output: 0

Input: Would you mind telling me what inhibition at 1 µM value was observed for O=c1n(CCCN2CCCCC2)c2ccccc2n1C1CCN(C(=S)NCc2ccco2)CC1 [Compound 158] ?
Output: 42

Input: What value of inhibition at 1 µM has been recorded for this entry: CC(NC(=O)N1CCC(n2c(=O)[nH]c3ccccc32)CC1)c1cccc2ccccc12 (stereo in doubt) [Compound 7]
Output: 31

Input: GET /values?readout=inhibition at 1 µM&item= CC(NC(=S)N1CCC(n2c(=O)n(CCCN3CCCCC3)c3ccccc32)CC1)c1ccc(F)cc1 (stereo not shown) [Compound 137]
Output: 0

Input: Return reported inhibition at 1 µM; argument: O=c1[nH]c2ccccc2n1C1CCN(C(=S)NC(c2ccccc2)(c2ccccc2)c2ccccc2)CC1 [Compound 25]
Output: 0

Input: State the recorded inhibition at 1 µM for this entry: CC(Cc1ccc(Cl)cc1)NC(=S)N1CCC(n2c(=O)[nH]c3ccccc32)CC1 (stereo not shown) [Compound 30]
Output: 9

Input: Data request, read-out inhibition at 1 µM, for COc1ccccc1CNC(=S)N1CCC(n2c(=O)[nH]c3ccccc32)CC1 [Compound 14]
Output: 1

Input: Need inhibition at 1 µM of O=c1n(CCCN2CCCCC2)c2ccccc2n1C1CCN(C(=S)Nc2ccccc2F)CC1 [Compound 115] , thanks.
Output: 11

Input: Using the record for CC(NC(=S)N1CCC(n2c(=O)[nH]c3ccccc32)CC1)c1ccc(F)cc1 (stereo not shown) [Compound 27] , report its inhibition at 1 µM.
Output: 20
